# tgt: 5-HT2 (Sus scrofa)
# Construct: membrane preparations from porcine cortex; from tissue; host or cells: porcine cortex
# Sequence (P50129 whole entry): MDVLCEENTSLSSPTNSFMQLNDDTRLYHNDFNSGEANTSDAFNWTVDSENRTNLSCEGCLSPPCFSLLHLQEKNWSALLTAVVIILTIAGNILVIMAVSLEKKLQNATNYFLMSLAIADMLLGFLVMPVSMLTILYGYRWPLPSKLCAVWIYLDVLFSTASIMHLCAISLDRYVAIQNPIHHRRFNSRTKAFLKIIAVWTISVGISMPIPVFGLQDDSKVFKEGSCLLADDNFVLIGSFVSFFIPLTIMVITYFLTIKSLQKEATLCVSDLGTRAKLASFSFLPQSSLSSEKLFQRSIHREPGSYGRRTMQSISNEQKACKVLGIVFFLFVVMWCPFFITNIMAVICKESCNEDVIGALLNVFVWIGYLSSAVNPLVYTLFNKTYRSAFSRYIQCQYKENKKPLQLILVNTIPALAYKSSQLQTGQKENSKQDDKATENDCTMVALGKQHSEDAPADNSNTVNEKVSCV
# method: radioligand binding assay, serotonin 5-HT2 receptor, [3H]ketanserin
# Design: species or system porcine
Entries and their measured Ki follow.

Answered examples (2):
smiles.text | Ki
Cc1ccc(CNCC2(F)CCN(C(=O)c3cc[nH]n3)CC2)nc1 | > 5 µM
Cc1ccc(CNCC2(F)CCN(C(=O)c3ccc(-c4ccccc4)s3)CC2)nc1 | 0.501 to 5 µM

Form field Ki, entry COc1cscc1C(=O)N1CCC(F)(CNCc2ccc(C)cn2)CC1 : > 5 µM

Form field Ki, entry Cc1ccc(CNCC2(F)CCN(C(=O)c3cc4sccc4s3)CC2)nc1 : > 5 µM

Form field Ki, entry Cc1ccc(CNCC2(F)CCN(C(=O)c3sc(Br)c4c3OCCO4)CC2)nc1 : > 5 µM

----------
# tgt: 5-HT1A (Sus scrofa)
# Construct: membrane preparations from porcine cortex; from tissue; host or cells: porcine cortex
# Sequence (A0A4X1UTF5 1-422): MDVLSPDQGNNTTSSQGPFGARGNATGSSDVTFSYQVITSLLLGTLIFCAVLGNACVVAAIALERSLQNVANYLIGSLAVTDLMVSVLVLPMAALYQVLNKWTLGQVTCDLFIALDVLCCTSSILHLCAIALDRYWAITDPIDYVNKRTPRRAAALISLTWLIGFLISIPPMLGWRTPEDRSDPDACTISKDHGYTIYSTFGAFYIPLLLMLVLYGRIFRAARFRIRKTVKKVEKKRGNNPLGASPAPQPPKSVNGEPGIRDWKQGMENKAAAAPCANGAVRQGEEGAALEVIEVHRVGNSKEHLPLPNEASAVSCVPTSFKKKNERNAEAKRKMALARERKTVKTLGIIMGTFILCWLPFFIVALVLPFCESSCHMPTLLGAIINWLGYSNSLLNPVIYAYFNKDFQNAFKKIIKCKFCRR
# method: radioligand binding assay, serotonin 5-HT1A receptor, [3H]WAY 100635
# condition.set: porcine cortex membranes, mean of two to five experiments in triplicate, read-out: Ki 5-HT1a
readout.name: Ki

Form field Ki, entry Cc1ccc(CNCC2(F)CCN(C(=O)c3cc(Br)cs3)CC2)nc1 : < 50 nM

----------
# tgt: human D4.4 (Homo sapiens)
# Sequence (P21917 whole entry): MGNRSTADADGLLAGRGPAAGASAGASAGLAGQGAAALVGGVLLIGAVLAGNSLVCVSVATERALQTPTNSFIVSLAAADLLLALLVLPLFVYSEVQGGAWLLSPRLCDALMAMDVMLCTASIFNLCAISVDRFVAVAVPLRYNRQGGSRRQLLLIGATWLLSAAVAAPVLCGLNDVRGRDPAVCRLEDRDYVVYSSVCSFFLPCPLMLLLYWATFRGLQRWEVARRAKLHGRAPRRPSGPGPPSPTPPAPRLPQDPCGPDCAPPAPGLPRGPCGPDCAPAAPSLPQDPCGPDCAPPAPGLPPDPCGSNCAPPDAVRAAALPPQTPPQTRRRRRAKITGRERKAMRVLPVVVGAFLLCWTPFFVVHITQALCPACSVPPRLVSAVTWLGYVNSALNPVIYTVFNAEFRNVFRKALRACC
# method: radioligand binding assay, dopamine D4.4 receptor, [3H]spiperone
# condition.set: CHO cell membranes, mean of two to five experiments in triplicate, read-out: Ki D4.4
readout.name: Ki

compound | readout.name | result
Cc1ccc(CNCC2(F)CCN(C(=O)c3ccc(-c4ccccn4)s3)CC2)nc1 [Example E14] | Ki | > 5 µM
Cc1ccc(CNCC2(F)CCN(C(=O)c3ccoc3)CC2)nc1 [Example E33] | Ki | > 5 µM
Cc1ccc(CNCC2(F)CCN(C(=O)c3ccsc3Br)CC2)nc1 [Example E19] | Ki | 0.501 to 5 µM
Cc1ccc(CNCC2(F)CCN(C(=O)c3ccc(-c4ccccc4)s3)CC2)nc1 [Example E13] | Ki | > 5 µM
Cc1ccc(CNCC2(F)CCN(C(=O)c3cc4sccc4s3)CC2)nc1 [Example E26] | Ki | 0.501 to 5 µM

Form field Ki, entry Cc1ccc(CNCC2(F)CCN(C(=O)c3sccc3Cl)CC2)nc1 [Example E3] : 0.501 to 5 µM

Form field Ki, entry Cc1ccc(CNCC2(F)CCN(C(=O)c3cc4ccccc4o3)CC2)nc1 [Example E35] : 0.501 to 5 µM

Form field Ki, entry Cc1ccc(CNCC2(F)CCN(C(=O)c3cc(C)cs3)CC2)nc1 [Example E10] : 0.501 to 5 µM

Form field Ki, entry Cc1ccc(CNCC2(F)CCN(C(=O)c3sccc3C)CC2)nc1 [Example E9] : > 5 µM
